Source: PubChem BioAssay (NCI)

Test system: NCI-H226 lung
Assay: NCI-60 one-dose screen, 48 h (100 = growth as untreated, 0 = no growth, -100 = all killed)
Details: 10 µM unless noted
Compounds without any hit were thinned out: in the full panel of roughly 83,000, 20% have a hit. Activity calls are given as the source filed them. Rule for the calls: active = growth percent below 10; inactive = the rest.
Parameter growth: see the listing below.
propertyMeasured: growth

1. Cc1ccc(NC(=O)c2ccc(CN3CCN(C)CC3)cc2)cc1Oc1ccc(-c2[nH]nc3ncnc(N)c23)cc1: 98.5% (inactive)
2. CC(=O)N(C)C1CCc2c(sc(NC(=O)c3ccc(C(C)(C)C)cc3)c2C(N)=O)C1 (centres undefined): 47.3% (inactive)
3. O=C1CCCc2nc(Nc3ccc(S(=O)(=O)Nc4ccc([N+](=O)[O-])cc4)cc3)ncc21: 109% (inactive)
4. O=C(Nc1cccc(Cl)c1)Nc1nc2ccc([N+](=O)[O-])cc2o1: 29% (inactive)
5. CN(Cc1ccccc1)S(=O)(=O)/N=C1\NC(=O)NC1=C(Cl)Cl: 91.7% (inactive)
6. COC(=O)c1ccc(NC2=C/C(=N/S(=O)(=O)c3ccc(C(=O)O)cc3)c3ccccc3C2=O)cc1: 32.7% (inactive)
7. NS(=O)(=O)c1ccc(Nc2nc(SCc3ccccc3)nc3ccccc23)cc1: 76.8% (inactive)
8. O=C(CSc1nc2ccccc2c(=O)n1-c1ccccc1)Nc1ccc(-c2nc3ccc([N+](=O)[O-])cc3[nH]2)cc1: 82% (inactive)
9. O=C(CSc1nc2ccccc2c(=O)n1-c1ccccc1)Nc1cccc(C(=O)/C=C/c2ccccc2Cl)c1: 97.1% (inactive)
10. CCOC(=O)C(=O)/C(=C\c1ccc(Cl)cc1)C(=O)N1C(=S)NC(=O)C1CC(C)C (centres undefined): 92% (inactive)
11. COc1ccccc1-n1cc(C#N)c(N)c1C(=O)c1ccc(Cl)cc1: 97.7% (inactive)
12. Nc1ncc(-c2ccc(NS(=O)(=O)c3ccc(Cl)c(Cl)c3)cc2)[nH]1: 87.3% (inactive)
13. COc1cccc2cc(-c3cc4ccccc4[nH]3)/c(=N\NC(=O)c3ccc(Cl)cc3)oc12: 44% (inactive)
14. COc1ccc(Cn2cc3c(c2-c2cc(OC)c(OC)c(OC)c2)CCc2c(CN4CCCC4)noc2-3)cc1: 61.7% (inactive)
15. COc1ccc(Cn2cc3c(c2-c2cc(OC)c(OC)c(OC)c2)CCc2c(CN4CCOCC4)noc2-3)cc1: 57.9% (inactive)
16. c1cc(-c2nc3ccc4[nH]ncc4c3c3c2CCCC3)[nH]n1: 74.9% (inactive)
17. O=S(=O)(Oc1ccc(-c2nnc(Nc3ccccc3)s2)cc1)C(F)(F)C(F)(F)C(F)(F)C(F)(F)C(F)(F)C(F)(F)F: 99.6% (inactive)
18. c1n[nH]cc1-c1nc2ccc3[nH]ncc3c2c2c1CCCC2: 29.1% (inactive)
19. CC1(C)CC[C@]2(C(=O)N3CCOCC3)CC[C@]3(C)C(=CC[C@@H]4[C@@]5(C)C/C(=C/c6ccco6)C(=O)C(C)(C)[C@@H]5CC[C@]43C)[C@@H]2C1: 69% (inactive)

---

Tested on: NCI-H226 lung
Assay: NCI-60 one-dose screen, 48 h (100 = growth as untreated, 0 = no growth, -100 = all killed)
Details: 10 µM unless noted
About 83,000 compounds went through this panel and 20% of them were active in at least one assay; those are over-represented in the sample as a whole.
Parameter growth: see the listing below.
propertyMeasured: growth (%)

1) Cn1ccnc1C(=O)/C=C/c1ccc(CNC(=O)c2ccc(Cl)cc2)cc1: 4.1
2) COc1ccc2c(c1)Oc1nc(N)c(C#N)c(N)c1C2Sc1ccc(C)cc1 (stereo not given): -1.63
3) Cn1ccnc1C(=O)/C=C/c1ccc(CNC(=O)c2ccc(S(F)(F)(F)(F)F)cc2)cc1: 27
4) COc1cccc(C(=O)Nc2cccc(C#Cc3cccc4[nH]nc(N)c34)c2)c1: 49.2
5) CCn1c2ccccc2c2cc(-n3nncc3-c3ccccc3)ccc21: 47.8

---

Parameter growth: see the listing below.
System: UO-31 renal
Assay: NCI-60 one-dose screen, 48 h (100 = growth as untreated, 0 = no growth, -100 = all killed)
Conditions: 10 µM unless noted
This is part of a sample that, as a whole, favours compounds with a hit. Of some 83,000 tested, about 20% had one in any assay. Activity calls are given as the source filed them. Rule for the calls: active = growth percent below 10; inactive = the rest.
propertyMeasured: growth

1. COc1ccc(-c2nc3cccc(O)c3c(=O)n2Cc2ccccc2)cc1COc1ccc(NC(C)=O)cc1: 74.2% [3 µM] (inactive)
2. Cc1ccc(NC(=O)c2ccc(CN3CCN(C)CC3)cc2)cc1Oc1ccc(-c2[nH]nc3ncnc(N)c23)cc1: 85.3% (inactive)
3. COc1ccc(C(=O)c2c(N)c(C#N)cn2-c2ccccc2OC)cc1: 47.9% (inactive)
4. CS(=O)(=O)Nc1cc(-c2ccc3ncc(C#N)c(NCc4ccccc4O)c3c2)cnc1Cl: 3.5% (active)
5. N#Cc1cccc(NC(=O)c2cc(-c3ccc(F)cc3F)ccc2O)c1: -14.2% (active)
6. NS(=O)(=O)c1ccc(-n2cc(-c3cccc(NC(=O)c4ccc(N5CCOCC5)c(C(F)(F)F)c4)c3)nn2)cc1: 26.7% (inactive)
7. COc1ccc(NCc2cn(-c3ccc(C(=O)O)cc3)nc2-c2cc(C(F)(F)F)cc(C(F)(F)F)c2)cc1: 93.1% (inactive)
8. COc1cc(-c2ccc3ncnc(NCc4ccccc4)c3c2)cnc1OC: 17.7% (inactive)
9. O=C(O)c1ccc(-n2cc(CNc3cc(F)c(F)c(F)c3)c(-c3ccc(F)cc3)n2)cc1: 77.4% (inactive)

---

Tested on: SR leukemia
Test: NCI-60 one-dose screen, 48 h (100 = growth as untreated, 0 = no growth, -100 = all killed)
Details: 10 µM unless noted
About 83,000 compounds went through this panel and 20% of them were active in at least one assay; those are over-represented in the sample as a whole.
Parameter growth: see the listing below.
propertyMeasured: growth (%)

1. O=C(NNc1nc2cc(F)ccc2n2c(CN3CC4CNCC4C3)ccc12)c1cnccn1 (centres undefined): 12.9
2. COc1ccc(-c2nc(C(Cl)Cl)nc3cc(-c4ccccc4)nn23)cc1: 4.09
3. NC(N)=Nc1ccc(Oc2cccc(Nc3ccc(Cl)c(C(F)(F)F)c3)c2)cn1: -54.6
4. O=C1[C@H]2Cc3c([nH]c4ccccc34)[C@@H](c3ccc(Br)cc3)N2C(=O)CN1C1CCN(CC2CCCCC2)CC1: -67.6
5. ClC(Cl)c1nc(-c2ccco2)n2nc(-c3ccccc3)cc2n1: 87.3
6. COc1cc(-c2nn(C(C)(C)C)cc2-c2ccnc(NCCCNS(=O)(=O)c3ccc(Cl)cc3)n2)ccc1Cl: 37.7
7. CC(C)(C)c1ccc(C(=O)Nc2sc3c(c2C(N)=O)CCC(O)C3)cc1 (centres undefined): 25.8
8. C=CCn1c(SCC(=O)Nc2ccc(C(=O)/C=C/c3ccc(Cl)cc3)cc2)nnc1-c1c[nH]c2ccccc12: 71.1
9. CCCCCc1ccc(S(=O)(=O)Nc2cccc(-c3csc(NC(=O)CN4CCN(CCO)CC4)n3)c2)cc1: 5.04

---

Tested on: MDA-MB-435 melanoma
Assay: NCI-60 one-dose screen, 48 h (100 = growth as untreated, 0 = no growth, -100 = all killed)
Settings: 10 µM unless noted
The panel holds about 83,000 compounds, 20% with a hit somewhere; the sample as a whole holds those more often.
propertyMeasured: growth (%)

1. COc1ccc(N2C(=O)c3cc(Cl)ccc3NC2SCc2ccccc2)cc1 (stereo unspecified): 94.5
2. CCNC(=O)N1CCc2cc(OC)c(OCCc3ccc(OC)cc3)cc2C1c1ccc(Cl)cc1C (stereo unspecified): 15.9
3. CCOc1ccccc1NC1=C(Cl)C(=O)c2nc(C)ccc2C1=O: -85.7
4. CC(=O)O[C@@H]1C(=O)N(c2cnccn2)[C@H]1c1ccccc1[N+](=O)[O-]: -38.7
5. Nc1ncc(-c2ccc3ncnc(Nc4cccc(Cl)c4F)c3c2)cn1: 80.4
6. C=CCn1c(SCC(=O)Nc2ccc(C(=O)/C=C/c3cccc([N+](=O)[O-])c3)cc2)nnc1-c1c[nH]c2ccccc12: 98.4
7. COc1ccc(-c2nn(-c3ccc(S(C)(=O)=O)cc3)cc2/C=N/O)cc1: 109
8. CCO/C=N/C1=C(C#N)C(c2ccc(OC)cc2)c2sc3c(C)cccc3c2O1 (stereo unspecified): -21.5
9. COc1ccc2c(c1)c(-c1cc(N)n3nc(-c4cn(C)c5ccc(OC)cc45)cc3n1)cn2C: 112
10. C[C@@H](Nc1ncnc2ccc(-c3cnc(Cl)c(NS(C)(=O)=O)c3)cc12)c1ccccc1: 60.9
11. O=C(NNc1nc2cc(F)ccc2n2c(CN3CCCC3)ccc12)c1cnccn1: 34.4
12. FC(F)(F)c1cc(Nc2cccc(Oc3ccc(NC4=NCCN4)nc3)c2)ccc1Cl: -40
13. O=C1CC(=O)N2CSCN(C(c3ccccc3)c3nc4ncncc4[nH]3)C2=N1 (stereo unspecified): 107
14. O=C1[C@H]2Cc3c([nH]c4ccccc34)[C@@H](c3c(Cl)cccc3Cl)N2C(=O)CN1C1CCN(CC2CCCCC2)CC1: 101
15. Cc1cc(-c2ccc(Cl)cc2)n(Cc2nnc(SCC(=O)Nc3ccc(S(N)(=O)=O)cc3)n2-c2ccc([N+](=O)[O-])cc2)n1: 87.4
16. CN(Cc1ccccc1)S(=O)(=O)/N=C1\NC(=O)NC1=C(Cl)Cl: 79.6
17. COc1cccc2cc(-c3cc4ccccc4[nH]3)/c(=N\NC(=O)c3ccc(Cl)cc3)oc12: 44.7
18. Cc1nc2ncc(-c3ccc4ncnc(NCc5ccccc5)c4c3)cc2[nH]1: 82.1
19. CC1=N[C@@H]2CN(C(=O)OC(C)(C)C)C[C@@H]2n2c1cc1ccccc1c2=O: 108
20. COc1ccc(C(=O)Nc2ncc(Cc3ccccc3Cl)s2)cc1: -5.1
21. COc1cc(Cn2cc3c(c2)-c2onc(CN4CCCC4)c2CC3)cc(OC)c1OC: 96.4
22. CC(C)(C)n1cc(-c2ccnc(NCCCNS(=O)(=O)c3cccc(F)c3)n2)c(-c2ccc(Cl)c(O)c2)n1: 101
23. COc1cc2nc(Cl)nc(Nc3cccc(C4=Nc5c(N)nc(N)nc5NC(c5ccc(Cl)cc5)C4)c3)c2cc1OC (stereo unspecified): 6.34
24. O=C1CCCc2nc(Nc3ccc(S(=O)(=O)Nc4ccc([N+](=O)[O-])cc4)cc3)ncc21: 104
25. O=C(/C=C/c1ccc(F)cc1)c1ccc(O)cc1: 67
26. COc1cc(-c2nn(C(C)(C)C)cc2-c2ccnc(NCCCNS(=O)(=O)c3ccc(Cl)cc3)n2)ccc1Cl: 72.2
27. CN1CCN(Cc2ccc(NC(=O)c3cncc(C#Cc4cnc5ccc(N6CCN(C)CC6)nn45)c3)cc2C(F)(F)F)CC1: -87.5
28. CCO/C=N/C1=C(C#N)C(c2ccc(F)cc2)c2sc3c(C)cccc3c2O1 (stereo unspecified): -31.2
29. CC1(C)[C@@H](O)CC[C@]2(C)[C@H]3CC[C@@H]4[C@H]5[C@H](C(=O)/C=C\c6ccccn6)CC[C@]5(O)CC[C@@]4(C)[C@]3(C)CC[C@@H]12: 27.4
30. O=S(=O)(NCCNc1nccc(-n2cnc3ccccc32)n1)c1ccc(C(F)(F)F)cc1: 64.4
31. C=C(C=O)[C@@H]1CC[C@]2(C)[C@H](CC=C3[C@H]4[C@@H](C)[C@H](C)CC[C@]4(C(=O)OC)CC[C@]32C)[C@@]1(C)CCC#N: -7.24
32. Nc1nc(Nc2ccccc2SSc2ccccc2Nc2nc(N)nc(-c3cccc(Br)c3)n2)nc(-c2cccc(Br)c2)n1: 93.9
33. NS(=O)(=O)c1ccc(Nc2nc(Nc3ccccc3)nc3nnc(SCC(=O)NC4CCCCC4)n23)cc1: 110
34. COc1cc(/C=C2\C(=O)Nc3ccccc32)ccc1OCc1ccc(F)cc1: 103
35. COc1ccccc1-n1cc(C#N)c(N)c1C(=O)c1ccc(C)cc1: 5.3
36. O=C(Cn1cc(-c2ccccc2)nn1)Nc1nc(-c2ccc(Cl)cc2)cs1: 95.7
